Just for reference, ChEMBL document CHEMBL1201862 is where these values come from.

# Test system: HOP-92
# TEST NAME: NCI tumour cell line growth inhibition, 48 h
Activity calls are given as the source filed them. Rule as the data show it: active = GI50 up to about 1.1 µM and inactive = higher.
Thanks in advance; please answer with one of these: y for active, n for inactive

COC(=O)c1c(C)[nH]c2c1cc(O)c1nc(C)c(C)nc12
n
CO[P@]1(=O)O[C@@H](c2ccccc2)[C@H](O)[C@]1(O)c1ccccc1
n
O=C(/C(=N/Nc1ccccc1)c1ccc([N+](=O)[O-])cc1)c1ccc([N+](=O)[O-])cc1
n

What was the test verdict on OC1(c2ccc(Cl)cc2)c2c(ccc3c2OCO3)C2=NCCN21 (stereo not given) ?
n

What was the test verdict on C=C1C(=O)O[C@H]2C3OC3(C)CC/C=C(/C(=O)OC)[C@@H](OC(C)=O)[C@H](OC(=O)C3(C)OC3C)[C@H]12 (stereo not given in full) ?
n

What was the test verdict on CN(C)/C(=N\C#N)N(Cc1ccccc1)Cc1ccccc1 ?
n

What was the test verdict on CC(=O)C1(c2ccccc2)CCCN(C)CC1 (stereo not given) ?
n

What was the test verdict on CC(C)CC(C/C=C1/CC(CO)(COC(=O)C(C)(C)C)OC1=O)CC(C)C (stereo not given) ?
y

What was the test verdict on CN(Cc1cnc2nc(N)nc(N)c2n1)c1ccc(C(=O)NC(CCC(=O)NCCC(P(=O)(O)O)P(=O)(O)O)C(=O)O)cc1 (stereo not given) ?
n

What was the test verdict on NCCCN1CCN(CC(=O)O)CCN(CCCN)CCN(CC(=O)O)CC1 ?
n

---

Each item that follows carries a reported GI50.
# Test system: LOX IMVI
# TEST NAME: NCI tumour cell line growth inhibition, 48 h
Active and inactive are the calls of the source. Cut-off read from the data, not from the text of the source: active = GI50 up to about 1.1 µM and inactive = higher.

Some solved cases for reference:
Cn1c(=O)cc(NNc2ccc(Cl)c(Cl)c2)[nH]c1=O
12.2 µM (inactive)
NCCN1C(=O)c2ccccc2C1c1ccc(Cl)cc1 (stereo unspecified)
> 100 µM (inactive)
COc1ccccc1C(=O)Nc1ccc(Cl)c(C(=O)OC(C)C)c1
43 µM (inactive)

// query GI50 value for entry N=C1N(c2ccccc2)C(=S)/C(=N/c2ccccc2)N1c1ccccc1
2.01 µM (inactive)

// query GI50 value for entry CC(C)(C)C1CCC2(CC1)c1[nH]c3ccccc3c1C1(CCC(C(C)(C)C)CC1)c1[nH]c3ccccc3c12 (stereo unspecified)
> 100 µM (inactive)

// query GI50 value for entry Cc1cc(O)c(C(C)C)cc1C(=S)Nc1ccc(Cl)cc1
11.2 µM (inactive)

// query GI50 value for entry O=C(N/C(=C\c1ccccc1)C1Nc2ccccc2C(=O)O1)c1ccccc1 (stereo unspecified)
18.2 µM (inactive)

// query GI50 value for entry OCC1OC(n2nc(-c3ccccc3)nc2-c2cnccn2)C(O)C(O)C1O (stereo unspecified)
> 100 µM (inactive)

---

Each item that follows carries a reported GI50.
# Tested on: HOP-62
# TEST NAME: NCI tumour cell line growth inhibition, 48 h
Activity calls are given as the source filed them. Rule as the data show it: active = GI50 up to about 1.1 µM and inactive = higher.

O=C(c1ccccc1)c1c(CC(O)c2ccccn2)n(C(=O)c2ccccc2)c2ccccc12 (stereo not given)
17.9 µM (inactive)
CC1=NC(C)(C)[N+]([O-])=C1
> 10 µM (inactive)
CN(C)Cc1cc(/N=N/c2ccccc2)ccc1O
39.7 µM (inactive)
S=C1N(c2ccc(Cl)cc2)C2=C(/N=N/c3ccccc3)C(=Nc3ccccc3S2)N1c1ccccn1
19.4 µM (inactive)

# next compound below
Item: CC(=O)OC1COC(n2c(=S)n(-c3ccccc3)c(=O)c3cc(Br)ccc32)C(OC(C)=O)C1OC(C)=O (stereo not given) Test system: HOP-62 Read-out: GI50 Value: ?
19.5 µM (inactive)

---

# System: SF-295
# TEST NAME: NCI tumour cell line growth inhibition, 48 h
Active and inactive are the calls of the source. No stated cut-off is given here; in the data, active = GI50 up to about 1.1 µM and inactive = higher.
Each item that follows carries a reported GI50.

Some solved cases for reference:
O=C(/C=C/c1ccc(O)cc1)OC[C@@H](O)COC1OC(CO)C(O)C(O)C1O (some centres not stated)
> 100 µM (inactive)
Cc1nn(-c2ccccc2)c(C)c1/C=N/NC(=O)c1sc(=S)n(-c2ccccc2)c1N
2.42 µM (inactive)
O=c1c2cccnc2ncn1CCN1CCCC1
> 100 µM (inactive)
Cc1ccc(-c2cc(-c3cc(-c4ccc(C)cc4C)[nH]n3)[nH]n2)c(C)c1
13.1 µM (inactive)
CC1CC(c2ccc([N+](=O)[O-])cc2)=Nc2ccccc2S1 (configuration not stated)
19.1 µM (inactive)

// query GI50 value for entry CCCCCCCCCCCCCCCC(=O)OCC1OC(OC)C2NP(=O)(N(CCCl)CCCl)OC1C2O (configuration not stated)
4.48 µM (inactive)

// query GI50 value for entry CN1N=C(c2ccncc2)OC1c1cccc(F)c1 (configuration not stated)
> 100 µM (inactive)

// query GI50 value for entry Cn1cc(NC(=O)Nc2cc(C(=O)Nc3cc(C(=O)Nc4ccc5cc(S(=O)(=O)O)cc(S(=O)(=O)O)c5c4)n(C)c3)n(C)c2)cc1C(=O)Nc1cc(C(=O)Nc2ccc3cc(S(=O)(=O)O)cc(S(=O)(=O)O)c3c2)n(C)c1
> 100 µM (inactive)

// query GI50 value for entry Brc1cccc(C2(CCCC3(c4cccc(Br)n4)OCCO3)OCCO2)n1
68.7 µM (inactive)

// query GI50 value for entry Cc1ccc(Cc2nn(C)c(=O)n2-n2cccc2)cc1
> 100 µM (inactive)

// query GI50 value for entry NNC(=O)c1ccc(OCc2nc3ccccc3[nH]2)cc1
> 100 µM (inactive)

// query GI50 value for entry O=C(c1ccccc1)c1c(CC(O)c2ccccn2)n(C(=O)c2ccccc2)c2ccccc12 (configuration not stated)
20.2 µM (inactive)

---

# Test system: M19-MEL
# TEST NAME: NCI tumour cell line growth inhibition, 48 h
Calls of active or inactive are those of the source. No stated cut-off is given here; in the data, active = GI50 up to about 1.1 µM and inactive = higher.
MEASURE NAME: GI50

Some solved cases for reference:
O=c1c2cccnc2ncn1CCN1CCCC1
> 100 µM (inactive)
CCCCCCCCCCCCCCCC(=O)OCC1OC(OC)C2NP(=O)(N(CCCl)CCCl)OC1C2O (stereo unspecified)
15.6 µM (inactive)
CC(C)(C)C1CCC2(CC1)c1[nH]c3ccccc3c1C1(CCC(C(C)(C)C)CC1)c1[nH]c3ccccc3c12 (stereo unspecified)
> 100 µM (inactive)
CC1(C)CCc2cc3c(cc2O1)OC(C)(C)C1c2c(ccc4c2CCC(C)(C)O4)OC31 (stereo unspecified)
> 100 µM (inactive)
CCCCCCCC/C=C\CCCCCCCC(=O)O [OLEIC ACID]
101 µM (inactive)

// query GI50 value for entry Nc1ncnc2c1ncn2CC(O)CO (stereo unspecified)
> 100 µM (inactive)

// query GI50 value for entry C=C1C(=O)OCC2C(C(=O)O)=CC3C(C)C(C)=CC123 (stereo unspecified)
14.7 µM (inactive)

// query GI50 value for entry COC(OC)c1cccc2c1C(=O)CCC1(O)c3ccccc3C1C2 (stereo unspecified)
> 100 µM (inactive)

// query GI50 value for entry C1CCN2CC3CONC3C2C1 (stereo unspecified)
> 100 µM (inactive)

---

# System: CCRF-CEM
# TEST NAME: NCI tumour cell line growth inhibition, 48 h
Active and inactive are the calls of the source. No stated cut-off is given here; in the data, active = GI50 up to about 1.1 µM and inactive = higher.
Thanks in advance; please answer with one of these: 1.0 for active, 0.0 for inactive

Cc1ccc2c(c1)Nc1ccccc1P2(=O)O
0.0
O=c1c2cc(Br)ccc2nc(CNc2ccccc2)n1-c1ccccc1
0.0

What was the test verdict on OC1(c2ccc(Cl)cc2)c2c(ccc3c2OCO3)C2=NCCN21 (stereo not given) ?
0.0

What was the test verdict on CCCCCCCCCCCC(=O)OCC1OC(n2cc(F)c(=O)[nH]c2=O)C(N)C(O)C1O (stereo not given) ?
0.0

What was the test verdict on CCCCCCCCCCCCCCCCCCOP(=O)([O-])OC1CC[N+](C)(C)CC1 [PERIFOSINE] ?
1.0

---

# System: DMS-273
# TEST NAME: NCI tumour cell line growth inhibition, 48 h
Calls of active or inactive are those of the source. Cut-off read from the data, not from the text of the source: active = GI50 up to about 1.1 µM and inactive = higher.
Thanks in advance; please answer with one of these: True = active, False = inactive

Please review the following examples before continuing.
Cc1nc(-c2nc([N+](=O)[O-])c([N+](=O)[O-])[nH]2)cs1
False
CCCCCCCC/C=C\CCCCCCCC(=O)O
False
C1CCN2CC3CONC3C2C1 (stereo unspecified)
False

What was the test verdict on CC1=NN(C(=O)Cc2ccccc2)C(=O)/C1=C\C=C\c1ccccc1 ?
False

---

# System: NCI/ADR-RES
# TEST NAME: NCI tumour cell line growth inhibition, 48 h
Calls of active or inactive are those of the source. No stated cut-off is given here; in the data, active = GI50 up to about 1.1 µM and inactive = higher.
MEASURE NAME: GI50

Some solved cases for reference:
COc1ccc([C@]23CCN(S(=O)(=O)c4ccc(C)cc4)[C@H]2[C@H](CO)C2(CC3)OCC(C)(C)CO2)cc1OC
> 100 µM (inactive)
CO/C=C(/C(=O)OC)c1ccccc1[C@H]1C[C@@H]1c1ccc(OC)cc1
20.2 µM (inactive)
CN1N=C(c2ccncc2)OC1c1cccc(F)c1 (stereo not given)
> 100 µM (inactive)
OCCc1ccsc1-c1sc(-c2cc(CCO)c(-c3sc(-c4cc(CCO)c(-c5sccc5CCO)s4)cc3CCO)s2)cc1CCO
1.86 µM (inactive)

// query GI50 value for entry Nc1ncnc2c1ncn2C1OC(CO)CC1O (stereo not given)
20.3 µM (inactive)
